Data credit: patent US20070254831A1

target_of_assay: T1, soluble human FcRn (human, UniProt P55899 24-297; P61769 21-119, biotinylated (Sulfo-NHS-LC-Biotin) in the ELISA; amine-coupled to CM5 chip in SPR)
T1 construct: also called shFcRn; biotinylated shFcRn
test_summary: SPR, pH 7.4
Bridge positions count the residues as written; N and C are the ends. Square brackets hold non-standard residues; d marks the D form. Ends that are not written are not given here. Pen = CC(C)(S)[C@H](N)C(=O)O
quantity_name: Kd (µM)

Observe how each entry below is paired with its result.
>  <binder>
QRF[Pen]TGHFG[dR]LYPCNGP-NH2 (disulfide 4-14; N-terminus assumed; SMILES CC(C)C[C@@H]1NC(=O)[C@@H](CCCNC(=N)N)NC(=O)CNC(=O)[C@H](Cc2ccccc2)NC(=O)[C@H](Cc2c[nH]cn2)NC(=O)CNC(=O)[C@H]([C@@H](C)O)NC(=O)[C@@H](NC(=O)[C@H](Cc2ccccc2)NC(=O)[C@H](CCCNC(=N)N)NC(=O)[C@@H](N)CCC(N)=O)C(C)(C)SSC[C@@H](C(=O)N[C@@H](CC(N)=O)C(=O)NCC(=O)N2CCC[C@H]2C(N)=O)NC(=O)[C@@H]2CCCN2C(=O)[C@H](Cc2ccc(O)cc2)NC1=O) [Peptide No. 41]

>  <output_unit>
µM

>  <readout_number>
8.8

$$$$
>  <binder>
QRFXTGHFGXLYPCNGP (Pen at 4; Aib (aminoisobutyric acid) at 10; disulfide; C-terminal amide) [Peptide No. 46]

>  <output_unit>
µM

>  <readout_number>
5.3

$$$$

[P] QRFXTGHFDGLYPCNGP (Pen at 4; D-Asp at 9; disulfide; C-terminal amide) [Peptide No. 47]
[Q] QRFXTGHFGFLYPCNGP (Pen at 4; D-Phe at 10; disulfide; C-terminal amide) [Peptide No. 44]
Which of these two has the smaller recorded Kd: P or Q ? Which one? Tell me its label. P
